Cited source for all entries: ChEMBL document CHEMBL3046369

Tested on: Escherichia coli
Test: Antibacterial activity against Escherichia coli assessed as growth inhibition by microtitration method
Type: functional
I'd be grateful if you could share measured MIC for these entries.
Lab book: enter the figure in µg/mL, no units written.

// MIC lookup, compound = O=C(N[C@H](Cc1ccccc1)C(=O)O)c1cnc2cc(C(F)(F)F)ccc2c1O , result: 25

// MIC lookup, compound = C[C@@H](NC(=O)c1cnc2cc(C(F)(F)F)ccc2c1O)C(=O)O , result: 25

// MIC lookup, compound = CCn1cc(C(=O)N[C@H](C)C(=O)O)c(=O)c2ccc(C(F)(F)F)cc21 , result: 12.5

// MIC lookup, compound = CCOC(=O)[C@@H](C)NC(=O)c1cn(CC)c2cc(C(F)(F)F)ccc2c1=O , result: 25

// MIC lookup, compound = O=C(O)[C@@H]1CCCN1C(=O)c1cnc2cc(C(F)(F)F)ccc2c1O , result: 25

// MIC lookup, compound = CCOC(=O)[C@H](C)NC(=O)c1cn(CC)c2cc(C(F)(F)F)ccc2c1=O , result: 25

// MIC lookup, compound = CC[C@@H](C)[C@H](NC(=O)c1cn(CC)c2cc(C(F)(F)F)ccc2c1=O)C(=O)O , result: 12.5

// MIC lookup, compound = CCn1cc(C(=O)N[C@@H](CC(C)C)C(=O)O)c(=O)c2ccc(C(F)(F)F)cc21 , result: 12.5

// MIC lookup, compound = CCOC(=O)[C@@H]1CCCN1C(=O)c1cn(CC)c2cc(C(F)(F)F)ccc2c1=O , result: 25

// MIC lookup, compound = CCOC(=O)[C@H](Cc1ccccc1)NC(=O)c1cn(CC)c2cc(C(F)(F)F)ccc2c1=O , result: 12.5

// MIC lookup, compound = O=C(N[C@@H](Cc1ccccc1)C(=O)O)c1cnc2cc(C(F)(F)F)ccc2c1O , result: 25

// MIC lookup, compound = CCn1cc(C(=O)N[C@@H](Cc2ccccc2)C(=O)O)c(=O)c2ccc(C(F)(F)F)cc21 , result: 12.5

// MIC lookup, compound = CC[C@@H](C)[C@H](NC(=O)c1cnc2cc(C(F)(F)F)ccc2c1O)C(=O)O , result: 25

// MIC lookup, compound = CCn1cc(C(=O)N[C@H](Cc2ccccc2)C(=O)O)c(=O)c2ccc(C(F)(F)F)cc21 , result: 25

// MIC lookup, compound = CCOC(=O)[C@@H](NC(=O)c1cn(CC)c2cc(C(F)(F)F)ccc2c1=O)[C@H](C)CC , result: 25

// MIC lookup, compound = CCn1cc(C(=O)N[C@@H](C)C(=O)O)c(=O)c2ccc(C(F)(F)F)cc21 , result: 12.5

// MIC lookup, compound = CC(C)[C@H](NC(=O)c1cnc2cc(C(F)(F)F)ccc2c1O)C(=O)O , result: 25

// MIC lookup, compound = CCOC(=O)[C@H](CC(C)C)NC(=O)c1cn(CC)c2cc(C(F)(F)F)ccc2c1=O , result: 25

// MIC lookup, compound = C[C@H](NC(=O)c1cnc2cc(C(F)(F)F)ccc2c1O)C(=O)O , result: 25

* * *

Test system: Staphylococcus epidermidis
Experiment: Antibacterial activity against Staphylococcus epidermidis assessed as growth inhibition by microtitration method
Type: functional
I'd be grateful if you could share measured MIC for these entries.
Lab book: enter the figure in mg/L, no units written.

// MIC lookup, compound = CCOC(=O)[C@@H](NC(=O)c1cn(CC)c2cc(C(F)(F)F)ccc2c1=O)[C@H](C)CC , result: 25

// MIC lookup, compound = O=C(N[C@H](Cc1ccccc1)C(=O)O)c1cnc2cc(C(F)(F)F)ccc2c1O , result: 25

// MIC lookup, compound = CC(C)C[C@H](NC(=O)c1cnc2cc(C(F)(F)F)ccc2c1O)C(=O)O , result: 25

// MIC lookup, compound = CCOC(=O)[C@H](Cc1ccccc1)NC(=O)c1cn(CC)c2cc(C(F)(F)F)ccc2c1=O , result: 6.25

// MIC lookup, compound = CCn1cc(C(=O)N2CCC[C@H]2C(=O)O)c(=O)c2ccc(C(F)(F)F)cc21 , result: 6.25
